Kindly supply the reported EC50 values for the records listed here.
Biological target: glutathione-S-transferase (GST) tagged LXRbeta LBD (ligand binding domain) (Homo sapiens)
Construct: purchased Invitrogen pv4658.pps
Sequence (P55055 222-460 limits assumed): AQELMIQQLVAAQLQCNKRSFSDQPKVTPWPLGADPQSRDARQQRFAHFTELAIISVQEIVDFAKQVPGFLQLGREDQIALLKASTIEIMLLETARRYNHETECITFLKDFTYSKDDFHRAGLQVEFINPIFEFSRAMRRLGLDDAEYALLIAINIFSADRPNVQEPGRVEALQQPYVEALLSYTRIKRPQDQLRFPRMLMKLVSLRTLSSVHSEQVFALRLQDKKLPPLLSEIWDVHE
Assay: LanthaScreen TR-FRET Liver X Receptor Coactivator Assay, co-activator recruitment to LXRbeta LBD
Format: biochemical
Details: potency (Inflection Point, IP), co-activator recruitment to LXRbeta LBD, in relation to T0901317; read-out: LXR beta IP
Field format: number, assumed nM, no unit text.

EC50 on glutathione-S-transferase (GST) tagged LXRbeta LBD (ligand binding domain) (Homo sapiens) for COc1cccc([C@@](O)(C(=O)N2CCC(CC3CCN(c4ccc(C(=O)N(C)C)c(Cl)c4)CC3)C2)C(F)(F)F)c1 (stereo partly shown) is 74

# CN(C)C(=O)c1ccc(N2CCC(CC3CCN(C(=O)C4(c5ccccc5)CC4)CC3)CC2)cc1Cl with glutathione-S-transferase (GST) tagged LXRbeta LBD (ligand binding domain) (Homo sapiens): EC50 is 97

COc1cc(Cl)cc([C@@](O)(C(=O)N2CCC(CC3CCN(c4ccc(C(=O)N(C)C)c(Cl)c4)CC3)CC2)C(F)(F)F)c1 on glutathione-S-transferase (GST) tagged LXRbeta LBD (ligand binding domain) (Homo sapiens) gives EC50 = 6

Reading of EC50 for CNC(=O)c1ccc(N2CCC(OC3CCN(C(=O)C4(c5ccccc5F)CCCC4)CC3)CC2)cc1Cl with glutathione-S-transferase (GST) tagged LXRbeta LBD (ligand binding domain) (Homo sapiens): 446

====

molecular target: glutathione-S-transferase (GST) tagged LXRbeta LBD (ligand binding domain) (Homo sapiens); construct: purchased Invitrogen pv4658.pps; assay: LanthaScreen TR-FRET Liver X Receptor Coactivator Assay, co-activator recruitment to LXRbeta LBD; type: biochemical; conditions: potency (Inflection Point, IP), co-activator recruitment to LXRbeta LBD, in relation to T0901317; read-out: LXR beta IP
Could you mark each record 1 if its EC50 falls strictly under 30 nM, and -1 if it equals or exceeds it?

q: Check if EC50 falls below 30 nM for CN(C)C(=O)c1ccc(N2CCC(CC3CCN(C(=O)C(O)(c4cc(F)cc(F)c4)C(F)(F)F)CC3)CC2)nc1Cl (stereo not shown) .
a: 1

q: Quick check: does CN(C)C(=O)c1ccc(N2CCC(CC3CCN(C(=O)[C@](O)(c4ccccc4F)C(F)(F)F)CC3)CC2)nc1Cl have EC50 under 30 nM?
a: 1

q: Here's an entry: COc1cccc([C@@](O)(C(=O)N2CCC(CC3CCN(c4ccc(C(=O)N(C)C)c(Cl)c4)CC3)CC2)C(F)(F)F)c1 (single isomer, unassigned) [Example 2-34] . Is its EC50 below 30 nM?
a: -1

q: A record lists CN(C)C(=O)c1ccc(N2CCC(CC3CCN(C(=O)[C@](O)(c4cc(Cl)cc(Cl)c4)C(F)(F)F)CC3)CC2)cc1Cl . Is its EC50 below 30 nM?
a: 1

q: State whether 30 nM exceeds EC50 recorded for COCCN(C)C(=O)c1ccc(N2CCC(OC3CCN(C(=O)[C@](O)(c4ccccc4)C(F)(F)F)CC3)CC2)cc1Cl .
a: -1

q: Input CN(C)C(=O)c1ccc(N2CCC(CC3CCN(C(=O)C4(c5ccccc5Cl)CC4)CC3)CC2)nc1Cl ; condition: EC50 strictly below 30 nM. Does it hold?
a: -1

q: Please determine if Cc1cc(N2CCC(CC3(C)CCN(C(=O)[C@](O)(c4cc(F)cc(Cl)c4)C(F)(F)F)CC3)CC2)ccc1C(=O)N(C)C is below 30 nM in terms of EC50.
a: 1

q: Check if EC50 falls below 30 nM for CNC(=O)c1ccc(N2CCC(OC3CCN(C(=O)C(O)(c4cccc(OC)c4)C(F)(F)F)CC3)CC2)cc1Cl (stereo not shown) .
a: -1

q: Regarding COc1cccc([C@@](O)(C(=O)N2CCC(CC3CCN(c4ccc(C(=O)N(C)C)c(Cl)c4)CC3)CC2)C(F)(F)F)c1 [Example 2-35] , kindly confirm whether its EC50 is beneath 30 nM.
a: 1

q: Hello, is EC50 of the following compound strictly smaller than 30 nM? CO[C@](C(=O)N1CCC(OC2CCN(c3ccc(C(=O)N(C)C)c(Cl)c3)CC2)CC1)(c1ccccc1)C(F)(F)F
a: -1

q: Lab note: EC50 threshold 30 nM. Does this compound come in strictly under it? CNC(=O)c1ccc(N2CCC(CC3CCN(C(=O)C(O)(c4cccc(C)c4)C(F)(F)F)CC3)CC2)cc1Cl (stereo not shown)
a: 1

q: Is EC50 strictly under 30 nM for the entry CN(C)C(=O)c1ccc(N2CCC(OC3CCN(C(=O)C(F)(F)F)CC3)CC2)cc1Cl ?
a: -1

====

molecular target: glutathione-S-transferase (GST) tagged LXRalpha LBD (ligand binding domain) (Homo sapiens, UniProt Q13133); construct: purchased Invitrogen pv4655; assay: LanthaScreen TR-FRET Liver X Receptor Coactivator Assay, co-activator recruitment to LXRalpha LBD; type: biochemical; details: potency (Inflection Point, IP), co-activator recruitment to LXRalpha LBD, in relation to T0901317
Sequence (Q13133 209-447 limits assumed): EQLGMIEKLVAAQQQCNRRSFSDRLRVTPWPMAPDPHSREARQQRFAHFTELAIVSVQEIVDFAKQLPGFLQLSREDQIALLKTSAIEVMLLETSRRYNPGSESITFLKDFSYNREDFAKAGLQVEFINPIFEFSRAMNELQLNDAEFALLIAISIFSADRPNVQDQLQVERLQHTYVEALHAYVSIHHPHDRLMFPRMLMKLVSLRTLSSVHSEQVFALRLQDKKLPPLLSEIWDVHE
From the text: […]
ENDPOINT LABEL: LXR alpha IP (nM)

Worked cases, LXR alpha IP (nM) given:
Reported LXR alpha IP (nM) of CN(C)C(=O)c1ccc(N2CCC(CC3CCN(C(=O)[C@](O)(c4cccc(OC5CC5)c4)C(F)(F)F)CC3)CC2)cc1Cl [Example 2-99] : NO IP

Entry CN(C)C(=O)c1ccc(N2CCC(CC3CCN(C(=O)[C@](O)(c4cccc(N(C)C)c4)C(F)(F)F)CC3)CC2)cc1Cl [Example 2-98] ; LXR alpha IP (nM) = NO IP

According to the records, this molecule O=C(c1ccc(N2CCC(CC3CCN(C(=O)[C@](O)(c4cc(Cl)cc(Cl)c4)C(F)(F)F)CC3)CC2)cc1Cl)N1CCC[C@@H]1CO [Example 4-23] displays LXR alpha IP (nM) of NO IP

Notebook: CN(C)C(=O)c1ccc(N2CCC(CC3CCN(C(=O)C(O)(c4ccccc4)C4CCCC4)CC3)CC2)nc1Cl (stereo not shown) [Example 7-94] , LXR alpha IP (nM) read as NO IP

Entry CN(C)C(=O)c1ccc(N2CCC(CC3CCN(C(=O)C(O)(c4ccccc4)c4ccsc4)CC3)CC2)nc1Cl (stereo not shown) [Example 7-96] ; LXR alpha IP (nM) = NO IP

GET /value?item= CCc1cccc(C(O)(C(=O)N2CCC(CC3CCN(c4ccc(C(=O)N(C)C)c(Cl)n4)CC3)CC2)C(F)(F)F)c1 (stereo not shown) [Example 7-90] &field=LXR alpha IP (nM) returns NO IP

For this molecule ( CN(C)C(=O)c1ccc(N2CCC(CC3CCN(C(=O)c4c(F)cccc4F)CC3)CC2)cc1Cl [Example 2-8] ), measured LXR alpha IP (nM) is NO IP

get_value(item= CN(C)C(=O)c1ccc(N2CCC(CC3CCN(C(=O)[C@](O)(c4ccccc4)C(F)(F)F)C3)CC2)cc1Cl (stereo partly shown) [Example 2-71] , readout=LXR alpha IP (nM)) returns NO IP

// LXR alpha IP (nM) lookup, molecule = CN(C)C(=O)c1ccc(N2CCC(CC3CCN(C(=O)C4(c5ccccc5)CCCC4)CC3)CC2)cc1Cl [Example 2-10] , result: NO IP

Record COc1cccc([C@@](O)(C(=O)N2CCC(CC3CCN(c4ccc(C(=O)N(C)C)c(Cl)c4)CC3)CC2)C(F)(F)F)n1 (stereo in doubt) [Example 2-165] , field LXR alpha IP (nM): NO IP

Continuing:
Entry CNC(=O)c1ccc(N2CCC(CC3CCN(C(=O)[C@](O)(c4cccc(OC)c4)C(F)(F)F)CC3)CC2)cc1Cl [Example 7-127] , LXR alpha IP (nM) reported as NO IP

The recorded LXR alpha IP (nM) for CN(C)C(=O)c1ccc(N2CCC(CC3(C)CCN(C(=O)[C@](O)(c4cccc(Cl)c4)C(F)(F)F)CC3)CC2)cc1Cl [Example 2-47] is NO IP

Entry COc1cccc([C@@](O)(C(=O)N2CC(CC3CCN(c4ccc(C(=O)N(C)C)c(Cl)c4)CC3)C2)C(F)F)c1 [Example 2-70] — recorded LXR alpha IP (nM) = NO IP

====

target: glutathione-S-transferase (GST) tagged LXRalpha LBD (ligand binding domain) (Homo sapiens); construct: purchased Invitrogen pv4655; assay: LanthaScreen TR-FRET Liver X Receptor Coactivator Assay, co-activator recruitment to LXRalpha LBD; type: biochemical; conditions: efficacy at max dose, in relation to reference dual agonist T0901317; read-out: LXR alpha Activity @ max dose (%)
ENDPOINT LABEL: Emax (%)
Please give a number only; it is taken to be in %.

Short answer for COc1cc(Cl)cc([C@@](O)(C(=O)N2CCC(CC3CCN(c4ccc(C(=O)N(C)C)c(Cl)c4)CC3)CC2)C(F)(F)F)c1 [Example 2-100] : Emax was 0

What the record says about CN(C)C(=O)c1ccc(N2CCC(CC3CCN(C(=O)[C@](O)(c4cccc(Cl)c4)C(F)(F)F)CC3)CC2)cc1Cl [Example 2-86] : Emax is 22

Recorded Emax (molecule CNC(=O)c1ccc(N2CCC(CC3CCN(C(=O)[C@](O)(c4cccc(OC)c4)C(F)(F)C(F)(F)F)CC3)CC2)nc1Cl [Example 7-138] ): 39
